// reported Population Apoptotic (%) per item
Test system: U2OS
test_details: Multiplex assay against U2OS
Assay type: toxicity, cell-based
experimental_setup: human, 12 h, 1 µM, compound concentration 1 uM, replicate 1
Provide only the numeric value, understood in %.

[[record]]
compound = "O=C(O)c1ccc2cc(-c3ccc(O)c(C45CC6CC(CC(C6)C4)C5)c3)ccc2c1 [O-DEMETHYLATED ADAPALENE]"
obs_value = 50

[[record]]
compound = "Cl.Cl.Nc1ncnc2c1c(-c1cccc(OCc3ccccc3)c1)cn2[C@H]1C[C@@H](CN2CCC2)C1"
obs_value = 33


// query # query: Population Apoptotic (%) of entry CCC(=O)O[C@]1(C(=O)SCF)[C@H](C)C[C@H]2[C@@H]3C[C@H](F)C4=CC(=O)C=C[C@]4(C)[C@@]3(F)[C@@H](O)C[C@@]21C [FLUTICASONE PROPIONATE]
// result 35

// query What Population Apoptotic (%) value was documented for this compound, Cc1cc2c(cc1N1C(=O)c3cccc4c(CCCO)ccc(c34)C1=O)n(C)c(=O)n2C ?
// result 50

// query GET /values?readout=Population Apoptotic (%)&item= CCn1c(-c2nonc2N)nc2cnc(Oc3cccc(NC(=O)c4ccc(OCCN5CCOCC5)cc4)c3)cc21 [GSK-269962A]
// result 43

// query Recorded Population Apoptotic (%) for c1ccc2oc(-c3csc(C4CCN(Cc5nc6ncccc6[nH]5)CC4)n3)cc2c1 , please?
// result 8

// query Field request: Population Apoptotic (%) | item: CNC(=O)c1cc(Oc2ccc(NC(=O)Nc3cc(C(C)(C)C)nn3-c3ccc4ncccc4c3)c(F)c2)ccn1 [REBASTINIB]
// result 46

---

Tested on: Fibroblast
test_details: Incucyte cell viability with human fibroblast; further: filed as whole numbers so only -1 and 0 and 1 occur
Format: toxicity, cell-based
experimental_setup: 24 h, 10 µM, compound concentration 10 uM, replicate number 1, timepoint 24 hours
We begin with a simple list: items and their reported Growth Rate.
Lab note: record just the number, no unit beside it.

// worked examples, Growth Rate included
[[record]]
compound = "CN(C)C(=O)Cn1cc(-c2nc(C3(c4ccc(-c5cnc(N)nc5)cc4)CC3)no2)cn1"
obs_value = 0

[[record]]
compound = "Cc1cc(C)c(N)c(C#Cc2cccc(F)c2)n1.Cl"
obs_value = 0

[[record]]
compound = "CCN(CC)CCCCC1CCN(CC(=O)N2c3ccccc3C(=O)Nc3cccnc32)CC1"
obs_value = 1

[[record]]
compound = "CS(=O)(=O)c1cc(C2(NC(=O)c3cncc4c3cnn4-c3ccc(F)cc3)CC2)ccn1"
obs_value = 0

[[record]]
compound = "O=C(O)COc1cccc(CN(Cc2ccc(-n3cccn3)cc2)S(=O)(=O)c2cccnc2)c1"
obs_value = 1


// query // fetch Fibroblast Growth Rate for N#Cc1ccc(Nc2ccc3[nH]c(=O)[nH]c3c2)c(Cl)c1 [TP-021n]
// result 0

// query Hello, I am looking for reported Growth Rate with Fibroblast for Cc1c(Oc2ccc(F)cc2)c(OC(C)C)nn1-c1ccc(C2CC2)cn1 . Could you help?
// result 0

// query Observed Growth Rate on Fibroblast for Cn1cc(-c2ccc3occ(-c4ccccc4-c4ccccc4)c3n2)cn1 , please.
// result 0

// query Recorded Growth Rate for O=C(Nc1cccc2c(=O)cc(-c3nnn[nH]3)oc12)c1ccc(OCCCCc2ccccc2)cc1 with Fibroblast, please?
// result 0

---

Tested on: U2OS
test_details: Multiplex assay against U2OS
Assay type: toxicity, cell-based
experimental_setup: human, 48 h, 10 µM, compound concentration 10 uM, replicate 1
Here the recorded Population Fragmented Nuclei (%) is given for each entry.
Give your result in % as a bare value.

These recorded examples may help you get a feel for the data.
[[record]]
molecule = "Cl.Cl.Nc1ncnc2c1c(-c1cccc(OCc3ccccc3)c1)cn2[C@H]1C[C@@H](CN2CCC2)C1"
tested_on = "U2OS"
obs_value = 30

[[record]]
molecule = "Cc1cc2c(cc1N1C(=O)c3cccc4c(CCCO)ccc(c34)C1=O)n(C)c(=O)n2C"
tested_on = "U2OS"
obs_value = 20

[[record]]
molecule = "CC(C)Oc1ccc(C(=O)N[C@H](CNC(=O)CN(C)C)Cc2ccc(-c3cn4cccc([C@H](C)O)c4n3)cc2)cc1Cl [GSK-923295A]"
tested_on = "U2OS"
obs_value = 18

[[record]]
molecule = "CC(=O)c1cc(-c2cc(C(=O)NC3CC3)ccc2C)c2ncccn12"
tested_on = "U2OS"
obs_value = 16

[[record]]
molecule = "Nc1ccc(C(=O)Nc2cccc(-c3nc(N4CCOCC4)c4oc5ncccc5c4n3)c2)cn1"
tested_on = "U2OS"
obs_value = 62


// query Request the reported Population Fragmented Nuclei (%) associated with CCCn1c(=O)c2[nH]c(C34CC5CC(CC3C5)C4)nc2n(CCC)c1=O
// result 18

// query If you can, please state the reported Population Fragmented Nuclei (%) value of C1=N/C2=N/c3ccc(OCCN4CCCC4)c(c3)COC/C=C\COCc3cccc(c3)C(=C1)N2 .
// result 28

// query GET /values?readout=Population Fragmented Nuclei (%)&item= O=C(O)c1ccc2cc(-c3ccc(O)c(C45CC6CC(CC(C6)C4)C5)c3)ccc2c1
// result 33

// query Please look up its Population Fragmented Nuclei (%): COc1cc2c(NC3CCN(C(C)C)CC3)nc(N3CCC(F)(F)CC3)nc2cc1OCCCN1CCCC1
// result 20

// query # lookup: Population Fragmented Nuclei (%) of CNc1oc(-c2cccc3ccccc23)nc1C#N
// result 53

// query Requested read-out: Population Fragmented Nuclei (%). Entry: COc1ccc(NS(=O)(=O)c2sc3ccc(Cl)cc3c2C)cc1N1CCNCC1.Cl
// result 20

// query Endpoint output: Population Fragmented Nuclei (%) of CC(C)N1CCC(C)(C)c2cc(C#Cc3ccc(C(=O)O)cc3)ccc21 . Value?
// result 38

// query Given the molecule CCc1cc2c(cc1CC)CC(NC[C@H](O)c1ccc(O)c3[nH]c(=O)ccc13)C2 , what is its reported Population Fragmented Nuclei (%)?
// result 23

// query What does the data say about its Population Fragmented Nuclei (%)? Entry: Nc1nc2c(c(N3CCNCC3)n1)CCC1=C2[C@@H]2CCCC[C@@H]2O1
// result 19

// query Name the reported Population Fragmented Nuclei (%) value associated with the molecule CCn1c(-c2nonc2N)nc2cnc(Oc3cccc(NC(=O)c4ccc(OCCN5CCOCC5)cc4)c3)cc21 [GSK-269962A]
// result 21

// query Please look up its Population Fragmented Nuclei (%): CCC(=O)O[C@]1(C(=O)SCF)[C@H](C)C[C@H]2[C@@H]3C[C@H](F)C4=CC(=O)C=C[C@]4(C)[C@@]3(F)[C@@H](O)C[C@@]21C [FLUTICASONE PROPIONATE]
// result 13

// query Population Fragmented Nuclei (%) lookup needed for Cc1nc(Cc2cccc(C(F)(F)F)c2)sc1-c1ccc(C(N)=O)nc1 [TP-024n] , thanks.
// result 20

---

System: Fibroblast
test_details: Incucyte cell viability with human fibroblast; further: filed as whole numbers so only -1 and 0 and 1 occur
Assay type: toxicity, cell-based
experimental_setup: 18 h, 10 µM, compound concentration 10 uM, replicate number 1, timepoint 18 hours
endpoint_label: Growth Rate
Write no unit; give the number alone.

[[record]]
molecular_string = "C=CCN1C[C@H](C)N([C@H](c2ccc(C(=O)N(CC)CC)cc2)c2cccc(O)c2)C[C@H]1C"
endpoint_label = "Growth Rate"
obs_value = 0

[[record]]
molecular_string = "Cl.Cl.NC1(c2ccc(-c3nc4ccn5c(=O)[nH]nc5c4cc3-c3ccccc3)cc2)CCC1"
endpoint_label = "Growth Rate"
obs_value = 0

[[record]]
molecular_string = "CC1=C(C#N)C(c2ccc3c(c2)c(NC(=O)c2ccccc2C)nn3C)C(C#N)=C(C)N1"
endpoint_label = "Growth Rate"
obs_value = 1


# input for lookup
// query Look at this compound and give its reported Growth Rate. c1ccc2oc(-c3csc(C4CCN(Cc5nc6ncccc6[nH]5)CC4)n3)cc2c1
// result 0

---

Test system: U2OS
test_details: Multiplex assay against U2OS
Assay type: toxicity, cell-based
experimental_setup: human, 48 h, 1 µM, compound concentration 1 uM, replicate 2
Classify as follows. Reported Population Healthy Nuclei (%) greater than or equal to 80%: 1. Reported Population Healthy Nuclei (%) below: 0.

The following compounds have reported results that may help.
[[record]]
compound = "Cc1cc2c(cc1N1C(=O)c3cccc4c(CCCO)ccc(c34)C1=O)n(C)c(=O)n2C"
class_assignment = 1

[[record]]
compound = "CCC(=O)O[C@]1(C(=O)SCF)[C@H](C)C[C@H]2[C@@H]3C[C@H](F)C4=CC(=O)C=C[C@]4(C)[C@@]3(F)[C@@H](O)C[C@@]21C [FLUTICASONE PROPIONATE]"
class_assignment = 1

[[record]]
compound = "Cc1nc(Cc2cccc(C(F)(F)F)c2)sc1-c1ccc(C(N)=O)nc1 [TP-024n]"
class_assignment = 1

[[record]]
compound = "Nc1nc2c(c(N3CCNCC3)n1)CCC1=C2[C@@H]2CCCC[C@@H]2O1"
class_assignment = 0

[[record]]
compound = "CC(C)N1CCC(C)(C)c2cc(C#Cc3ccc(C(=O)O)cc3)ccc21"
class_assignment = 1

[[record]]
compound = "CCc1cc2c(cc1CC)CC(NC[C@H](O)c1ccc(O)c3[nH]c(=O)ccc13)C2"
class_assignment = 1

[[record]]
compound = "Nc1ccc(C(=O)Nc2cccc(-c3nc(N4CCOCC4)c4oc5ncccc5c4n3)c2)cn1"
class_assignment = 0

[[record]]
compound = "COc1ccc(NS(=O)(=O)c2sc3ccc(Cl)cc3c2C)cc1N1CCNCC1.Cl"
class_assignment = 0

[[record]]
compound = "CNc1oc(-c2cccc3ccccc23)nc1C#N"
class_assignment = 0

[[record]]
compound = "CCCn1c(=O)c2[nH]c(C34CC5CC(CC3C5)C4)nc2n(CCC)c1=O"
class_assignment = 1


Consider the additional compound presented here.
// query Has Cl.Cl.Nc1ncnc2c1c(-c1cccc(OCc3ccccc3)c1)cn2[C@H]1C[C@@H](CN2CCC2)C1 a recorded Population Healthy Nuclei (%) greater than or equal to 80%?
// result 0
